Overview of reported inhibition across a group of compounds:
# test system: Ubiquitin carboxyl-terminal hydrolase isozyme L5 (Homo sapiens) (UniProt Q9Y5K5)
# Sequence (Q9Y5K5 whole entry, looked up): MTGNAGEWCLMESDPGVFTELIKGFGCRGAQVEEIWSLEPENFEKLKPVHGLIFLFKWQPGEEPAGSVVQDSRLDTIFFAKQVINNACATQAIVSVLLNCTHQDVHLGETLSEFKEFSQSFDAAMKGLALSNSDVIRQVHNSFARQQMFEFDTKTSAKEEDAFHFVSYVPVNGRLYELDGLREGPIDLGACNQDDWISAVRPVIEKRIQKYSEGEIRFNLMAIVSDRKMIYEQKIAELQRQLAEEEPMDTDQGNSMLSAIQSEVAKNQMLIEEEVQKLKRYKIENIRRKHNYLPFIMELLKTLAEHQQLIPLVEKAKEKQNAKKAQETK
# assay details: inhibitors of human UCH37 deubiquitinase, primary screen, biochemical, Ub-AMC cleavage, fluorescence (AID 588478);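 also: 0% = compound-free wells with enzyme and 100% = wells lacking proteasome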
# conditions: purified proteasome/UCH37, Ub-AMC cleavage fluorescence; active compounds read high; concentration not given here
In all, about 330,000 compounds went through this assay and about 1,100 (0.33%) were called active. The sample as a whole holds a higher share of actives than the screen did.

Q. Report inhibition for CN1CCN(N=Cc2c[nH]c3ccccc23)CC1
A. 3.94% (inactive)

====

Overview of reported inhibition across a group of molecules:
# test system: Ubiquitin carboxyl-terminal hydrolase isozyme L5 (Homo sapiens) (UniProt Q9Y5K5)
# assay details: inhibitors of human UCH37 deubiquitinase, primary screen, biochemical, Ub-AMC cleavage, fluorescence (AID 588478);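 also: 0% = compound-free wells with enzyme and 100% = wells lacking proteasome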
# conditions: purified proteasome/UCH37, Ub-AMC cleavage fluorescence; active compounds read high; concentration not given here
Out of some 330,000 compounds screened, about 1,100 (0.33%) were called active. Only a selection was taken, and actives are over-represented in it overall.
Return type: number; implicit unit %.

Sample answers from the record:
- CNC(=O)Nc1ccc(C(=O)NN=CC23CC[C@@H](O)CC2(O)CC[C@@H]2[C@@H]3CCC3(C)C(C4=CC(=O)OC4)CCC23O)cc1 (some centres undefined): 3.8
- C=CCN1CC[C@]23c4c5ccc(O)c4O[C@H]2C(=NNC(=O)c2ccccc2)CC[C@@]3(O)[C@H]1C5: 4.43
- Oc1ccc(C=NNP(=S)(c2ccccc2)c2ccccc2)cc1O: 2.56

Shifting focus to the molecule that follows.
Q. Report inhibition for Nc1nonc1C(=O)NN=Cc1ccc([N+](=O)[O-])o1
A. 13.2
